Listed below: EC50 values for each entry.
- Tested on: L6
- Assay Protocol: Uncoupling activity in rat L6 myoblasts assessed as oxygen consumption rate incubated over 90 mins
- Type: functional, cell-based
- Protocol Conditions: Rattus norvegicus, L6, 1.5 h; read-out: EC50
Number only, in µM; omit the unit.

Compound: Fc1cccc(-c2ccnc3[nH]c(C(F)(F)F)nc23)c1
Scale Unit: µM
EC50: 8.2
--
Compound: FC(F)(F)Oc1ccc(-c2ccnc3[nH]c(C(F)(F)F)nc23)cc1
Scale Unit: µM
EC50: 0.48
--
Compound: FC(F)(F)c1nc2c(-c3cc(Cl)cc(Cl)c3)ccnc2[nH]1
Scale Unit: µM
EC50: 1.1

Can you look up the measured EC50 of Fc1cc(F)cc(-c2ccnc3[nH]c(C(F)(F)F)nc23)c1 for me?
1.5
